Test system: Hs-578T
measurement_notes: Growth inhibition of human Hs-578T cells assessed as cell growth at 10 uM incubated for 48 hrs by sulforhodamine B assay relative to control
Type: functional
test_context: read-out: Activity
Parameter growth at 10 µM: see the listing below.
# output: bare number, implied unit %

These solved cases illustrate the format of a correct answer.
>>> meas_value("CC(=O)Nc1cc(CO)cc(NC(=O)c2cccc(NC(=O)CCCN3CCOCC3)c2)c1")
114
>>> meas_value("CC(=O)Nc1cccc(NC(=O)c2ccc(C(=O)Nc3cc(CCl)cc(NC(C)=O)c3)cc2)c1")
114
>>> meas_value("CC(=O)Nc1cc(CO[Si](C)(C)C(C)(C)C)cc(NC(=O)c2ccc(C(=O)Nc3cccc(NC(=O)CCCN(C)C)c3)cc2)c1")
111

Recall and state the measured growth at 10 µM for CCN(CC)CC(=O)Nc1cccc(C(=O)Nc2cc(CO)cc(NC(C)=O)c2)c1 .
130

Recall and state the measured growth at 10 µM for CC(=O)Nc1cc(CO)cc(NC(=O)c2ccc(C(=O)NCCCN(C)C)cc2)c1 .
114

* * *

Tested on: EKVX
measurement_notes: Growth inhibition of human EKVX cells assessed as cell growth at 10 uM incubated for 48 hrs by sulforhodamine B assay relative to control
Format: functional
test_context: read-out: Activity
Parameter growth at 10 µM: see the listing below.
# output: bare number, implied unit %

>>> meas_value("CC(=O)Nc1ccc(C(=O)Nc2cc(CO)cc(NC(C)=O)c2)cc1")
112
>>> meas_value("CC(=O)Nc1cc(CO)cc(NC(=O)c2ccc(C(=O)Nc3cc(CO)cc(NC(C)=O)c3)cc2)c1")
115
>>> meas_value("CC(=O)Nc1cc(CO[Si](C)(C)C(C)(C)C)cc(NC(=O)c2ccc(C(=O)Nc3cccc(NC(=O)CCCN(C)C)c3)cc2)c1")
91
>>> meas_value("CCN(CC)CC(=O)Nc1cccc(C(=O)Nc2cc(CO)cc(NC(C)=O)c2)c1")
120
>>> meas_value("CC(=O)Nc1cc(CO)cc(NC(=O)c2ccc(C(=O)NCCCN3CCOCC3)cc2)c1")
115
>>> meas_value("CC(=O)Nc1cc(CO)cc(NC(=O)c2cccc(NC(=O)CCCN3CCOCC3)c2)c1")
113
>>> meas_value("CCN(CC)CC(=O)Nc1ccc(C(=O)Nc2cc(CO)cc(NC(C)=O)c2)cc1")
104
>>> meas_value("CC(=O)Nc1cc(CCl)cc(NC(=O)c2ccc(C(=O)Nc3cccc(NC(=O)CCCN(C)C)c3)cc2)c1")
86

Recall and state the measured growth at 10 µM for CC(=O)Nc1cc(CCl)cc(NC(=O)c2ccc(C(=O)NCCCN(C)C)cc2)c1 .
101

Recall and state the measured growth at 10 µM for CC(=O)Nc1cc(CO)cc(NC(=O)c2ccccc2)c1 .
103

Recall and state the measured growth at 10 µM for CC(=O)Nc1cc(CO)cc(NC(=O)c2ccc(NC(=O)CCCN3CCOCC3)cc2)c1 .
103

Recall and state the measured growth at 10 µM for CC(=O)Nc1cccc(NC(=O)c2ccc(C(=O)Nc3cc(CCl)cc(NC(C)=O)c3)cc2)c1 .
114

Recall and state the measured growth at 10 µM for CC(=O)Nc1cc(CO)cc(NC(=O)c2ccc(C(=O)Nc3cccc(NC(=O)CCCN(C)C)c3)cc2)c1 .
95.5

Recall and state the measured growth at 10 µM for CC(=O)Nc1cc(CO)cc(NC(=O)c2ccc(C(=O)NCCCN(C)C)cc2)c1 .
108

Recall and state the measured growth at 10 µM for CC(=O)Nc1cccc(NC(=O)c2ccc(C(=O)Nc3cc(CO)cc(NC(C)=O)c3)cc2)c1 .
112

Reference source: ChEMBL document CHEMBL4715697
